What protein stability index was measured for each of the following?
B1: MYBL2 (parent)
chain: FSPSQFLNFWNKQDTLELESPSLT

- Variants of: B1
- assayRemarks: protein stability index of a GFP-peptide fusion (GPS, HEK-293T) (PSI 1-6); higher = more stable;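 note: lentivirally expressed fusions sorted by FACS into six bins by GFP to DsRed ratio, PSI derived from sequencing read proportions per bin multiplied by bin number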
- protocolConditions: c terminus: a fixed tail appended
Respond using a number only.

Requested read-out: protein stability index. Entry: FSPSQFLNFWNKQDTLELESCSLT [P21C] 2.77

Thanks! And FSPSQFLNFWNKQDTLEIESPSLT [L18I] ? 2.61

Next entry: FSPSQFLNFWNKQDILELESPSLT [T15I] 2.92

Next entry: FSPSQFCNFWNKQDTLELESPSLT [L7C] 3.24

Next up: FSESQFLNFWNKQDTLELESPSLT [P3E] 1.6

Note, next up: FSPSQFLNFWNKQDHLELESPSLT [T15H] 3.8

Thanks! And FSPSQFLNFWNKQDTLELEDPSLT [S20D] ? 2.62

Next entry: FSPSQDLNFWNKQDTLELESPSLT [F6D] 2.59

Queued: FSPSQFLNFWNKQDTLELESPSFT [L23F] 3.38

And then FSPSQFLNFWNKQDTRELESPSLT [L16R] , what is it? 4.02

Field entry: FSPSQFLNFWNKQFTLELESPSLT [D14F] 3.92

Now give it for FSPSQFLNFWNKQDTLPLESPSLT [E17P] too. 1.74

Please give the result for FSPSQFLNFWNKQDWLELESPSLT [T15W] too. 3.33

Next entry: FSPSCFLNFWNKQDTLELESPSLT [Q5C] 3.02

Next variant: FSPSQFLNFWSKQDTLELESPSLT [N11S] 2.99

Likewise for FSPSQFLNFWNKQDTLTLESPSLT [E17T] ? 2.41

Lookup FSPSYFLNFWNKQDTLELESPSLT [Q5Y] 2.29

Next variant up: FHPSQFLNFWNKQDTLELESPSLT [S2H] 3.45

Can you check FSPSQFLNFHNKQDTLELESPSLT [W10H] next? 2.77

Next record, please: FSPSQFLRFWNKQDTLELESPSLT [N8R] 2.93

Ok, now FSPSQFLNFWNKQDTLEVESPSLT [L18V] 3.28

Also check FSPSQFLNCWNKQDTLELESPSLT [F9C] 2.17
